- assay: LNP average particle size and polydispersity by dynamic light scattering
- Type: physicochemical
- condition.summary: Table 3, Experiments 1-13; LNP 50% ionizable lipid, 38% cholesterol, 9% DSPC, 3% PEG2K-DMG; sgRNA:mRNA 1:2
The entries below come with measured Number mean values attached.
Entry rule: numbers only, all in nm.

Known results for compounds:
{"compound": "CCCCCCCCC(CCCCCCCC)OC(=O)CCCCCCC(=O)OCC(COC(=O)CCCCCCC(=O)OC(CCCCCCCC)CCCCCCCC)COC(=O)NCCCN(CC)CC [Compound 61]", "Number mean (nm)": 39}
{"compound": "CCCCC/C=C\\C/C=C\\CCCCCCCC(=O)OCC(COC(=O)CCC(OCCCCCCCC)OCCCCCCCC)COC(=O)NCCN(CC)CC (stereo not shown) [Compound 54]", "Number mean (nm)": 80}
{"compound": "CCCCC/C=C\\C/C=C\\CCCCCCCC(=O)OCC(CCCCCCCCC(=O)OC(CCCCCCCC)CCCCCCCC)COC(=O)NCCN(CC)CC (stereo not shown) [Compound 10]", "Number mean (nm)": 83}
{"compound": "CCCCCCC(CCCC)COC(=O)CCCCCC(=O)OCC(COC(=O)CCCCCC(=O)OCC(CCCC)CCCCCC)COC(=O)OCCCN(CC)CC (stereo not shown) [Compound 5]", "Number mean (nm)": 90}
{"compound": "CCCCC/C=C\\C/C=C\\CCCCCCCC(=O)OCC(CCCCCCC(=O)OC(CCCC)CCCC)COC(=O)OCCCN(CC)CC (stereo not shown) [Compound 20]", "Number mean (nm)": 68}

Input CCCCC/C=C\C/C=C\CCCCCCCC(=O)OCC(CCCCCCCCC(=O)OC(CCCCCCCC)CCCCCCCCC)COC(=O)CCC(CCCCCCCC)OC(=O)NCCN(C)CC (stereo not shown) [Compound 24] , output reported Number mean.
60

Input CCCCC/C=C\C/C=C\CCCCCCCC(=O)OCC(CCCCCCC(=O)OC(CCCCCCCC)CCCCCCCC)COC(=O)OCCCN(CC)CC (stereo not shown) [Compound 16] , output reported Number mean.
62

Input CCCCCCC(CCCCCC)OC(=O)CCCC(=O)OCC(COC(=O)CCCC(=O)OC(CCCCCC)CCCCCC)COC(=O)NCCN(CC)CC [Compound 37] , output reported Number mean.
71

###

- Tested on: rat TTR gene
- assay: In vivo editing of TTR in rat liver after LNP delivery (NGS, % editing)
- Parameters: species or system rat (Sprague-Dawley)
- condition.summary: Experiment 5, 0.1 mpk, LNP with PEG2K-DMG
measured.parameter: Mean % editing (%)
Entry rule: numbers only, all in %.

Known results for molecules:
{"molecule": "CCCCC/C=C\\C/C=C\\CCCCCCCC(=O)OCC(CCCCCCCCC(=O)OC(CCCCCCCC)CCCCCCCCC)COC(=O)CCC(CCCCCCCC)OC(=O)NCCN1CCCC1 (centres unmarked)", "measurement.unit": "%", "quantitative.readout": 17.0}
{"molecule": "CCCCC/C=C\\C/C=C\\CCCCCCCC(=O)OCC(CCCCCCCCC(=O)OC(CCCCCCCC)CCCCCCCCC)COC(=O)CCC(CCCCCCCC)OC(=O)NCCN(C)CC (centres unmarked)", "measurement.unit": "%", "quantitative.readout": 3.6}

Input CCCCC/C=C\C/C=C\CCCCCCCC(=O)OCC(COC(=O)CCC(OCCCCCCCC)OCCCCCCCC)COC(=O)OCCCN(CC)CC (centres unmarked) , output reported Mean % editing.
42.8

Input CCCCC/C=C\C/C=C\CCCCCCCC(=O)OCC(CCCCCCCCC(=O)OC(CCCCCCCC)CCCCCCCCC)COC(=O)CCC(CCCC)OC(=O)NCCN(C)CC (centres unmarked) , output reported Mean % editing.
41.9

Input CCCCC/C=C\C/C=C\CCCCCCCC(=O)OCC(CCCCCCCCC(=O)OC(CCCCCCCC)CCCCCCCCC)COC(=O)CCC(CCCC)OC(=O)NCCN1CCCC1 (centres unmarked) , output reported Mean % editing.
55.3

###

- assay: pKa of unformulated amine lipid by TNS fluorescence
- Assay type: physicochemical
- condition.summary: sodium phosphate buffer; Table 2; unformulated amine lipid, TNS; read-out: Lipid pKa
The entries below come with measured pKa values attached.
// return just the number, without any unit appended

Known results for compounds:
{"compound": "CCCCCCCCC(CCCCCCCC)C(=O)OCCCC(=O)OCC(COC(=O)CCCOC(=O)C(CCCCCCCC)CCCCCCCC)COC(=O)NCCN(CC)CC [Compound 39]", "measured.parameter": "pKa", "quantitative.readout": 6.63}
{"compound": "CCCCC/C=C\\C/C=C\\CCCCCCCC(=O)OCC(CCCCCCCCC(=O)OC(CCCCCCCC)CCCCCCCC)COC(=O)NCCN(CC)CC (stereo not shown) [Compound 10]", "measured.parameter": "pKa", "quantitative.readout": 6.37}
{"compound": "CCCCC/C=C\\C/C=C\\CCCCCCCC(=O)OCC(CCCCC(=O)OC(CCCC)CCCC)COC(=O)OCCCN(C)CC (stereo not shown) [Compound 13]", "measured.parameter": "pKa", "quantitative.readout": 6.64}

Input CCCCCCCCOC(CCC(=O)OCC(COC(=O)CCC(OCCCCCCCC)OCCCCCCCC)COC(=O)NCCN(CC)CC)OCCCCCCCC [Compound 22] , output reported pKa.
6.66

Input CCCCC/C=C\C/C=C\CCCCCCCC(=O)OCC(CCCCCCC(=O)OC(CCCCCC)CCCCCC)COC(=O)OCCCN(CC)CC (stereo not shown) [Compound 18] , output reported pKa.
6.08

Input CCCCC/C=C\C/C=C\CCCCCCCC(=O)OCC(CCCCC(=O)OC(CCCC)CCCC)COC(=O)NCCN(CC)CC (stereo not shown) [Compound 12] , output reported pKa.
6.82

###

- System: rat TTR gene
- assay: In vivo editing of TTR in rat liver after LNP delivery (NGS, % editing)
- Set-up: species or system rat (Sprague-Dawley)
- condition.summary: Experiment 2, 0.1 mpk, LNP with PEG2K-DMG
- Method: LNPs were prepared using various amine lipids in a 4-component lipid system consisting of an ionizable lipid (e.g., an amine lipid), DSPC, cholesterol and a PEG lipid (e.g., PEG2K-DMG, C13 Ether, C14 Ether). […] Sprague-Dawley female rats, ranging from 6-10 weeks of age were used in each study. Animals were weighed and dosed based on individual body weight measured the morning of dosing. […]
measured.parameter: Mean % editing (%)
Entry rule: numbers only, all in %.

{"compound": "CCCCC/C=C\\C/C=C\\CCCCCCCC(=O)OCC(COC(=O)CCCCCC(=O)OC(CCCCCCCC)CCCCCCCC)COC(=O)NCCN(CC)CC (stereo not drawn) [Compound 59]", "study.system": "rat TTR gene", "quantitative.readout": 53.4}

Input CCCCC/C=C\C/C=C\CCCCCCCC(=O)OCC(COC(=O)CCCC(=O)OC(CCCCCCCC)CCCCCCCC)COC(=O)OCCCN(CC)CC (stereo not drawn) [Compound 56] , output reported Mean % editing.
50.9

Input CCCCC/C=C\C/C=C\CCCCCCCC(=O)OCC(COC(=O)CCCC(=O)OC(CCCCCCCC)CCCCCCCC)COC(=O)NCCN(CC)CC (stereo not drawn) [Compound 58] , output reported Mean % editing.
60.4

###

- assay: LNP average particle size and polydispersity by dynamic light scattering
- Format: physicochemical
- condition.summary: Table 3, Experiments 1-13; LNP 50% ionizable lipid, 38% cholesterol, 9% DSPC, 3% PEG2K-DMG; sgRNA:mRNA 1:2
measured.parameter: PDI
// return just the number, without any unit appended

{"compound": "CCCCC/C=C\\C/C=C\\CCCCCCCC(=O)OCC(CCCCCCCCC(=O)OC(CCCCCCCC)CCCCCCCCC)COC(=O)CCC(CCCCCCCC)OC(=O)NCCN1CCCC1 (stereo not drawn)", "PDI": 0.03}
{"compound": "CCCCC/C=C\\C/C=C\\CCCCCCCC(=O)OCC(CCCCC(=O)OC(CCCCCCCC)CCCCCCCC)COC(=O)OCCCN(CC)CC (stereo not drawn)", "PDI": 0.06}
{"compound": "CCCCC/C=C\\C/C=C\\CCCCCCCC(=O)OCC(CCCCC(=O)OC(CCCCCC)CCCCCC)COC(=O)OCCCN(CC)CC (stereo not drawn)", "PDI": 0.03}
{"compound": "CCCCCCCCC(CCCCCCCC)OC(=O)CCCCCC(=O)OCC(CCCCCCCCC(=O)OCC(CCCC)CCCCCC)COC(=O)NCCN(CC)CC (stereo not drawn)", "PDI": 0.03}
{"compound": "CCCCCCCCCCCC(=O)OCC(COC(=O)CCC(OCCCCCCCC)OCCCCCCCC)COC(=O)OCCCN(CC)CC (stereo not drawn)", "PDI": 0.05}

// below: PDI requested for another compound
Input "CCCCCCC(CCCCCC)OC(=O)CCCC(=O)OCC(COC(=O)CCCC(=O)OC(CCCCCC)CCCCCC)COC(=O)NCCN(CC)CC" , output reported PDI.
0.014
